# STUDY_TARGET: LXRβ (Homo sapiens (Human), UniProt P55055)
# Sequence (P55055 whole entry, the tested form may be a part): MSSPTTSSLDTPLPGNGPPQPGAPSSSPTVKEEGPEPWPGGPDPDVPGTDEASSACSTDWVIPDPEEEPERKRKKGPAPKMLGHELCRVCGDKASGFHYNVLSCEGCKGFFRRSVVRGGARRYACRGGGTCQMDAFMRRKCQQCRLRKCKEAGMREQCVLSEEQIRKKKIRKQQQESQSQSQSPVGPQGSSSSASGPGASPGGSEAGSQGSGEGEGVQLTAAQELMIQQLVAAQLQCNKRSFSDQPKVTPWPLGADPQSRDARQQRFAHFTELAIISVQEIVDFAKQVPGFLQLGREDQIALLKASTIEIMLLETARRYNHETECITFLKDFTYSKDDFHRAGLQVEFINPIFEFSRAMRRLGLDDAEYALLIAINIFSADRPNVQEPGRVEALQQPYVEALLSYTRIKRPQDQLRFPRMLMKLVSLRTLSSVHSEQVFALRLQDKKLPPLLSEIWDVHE
# TEST_DESCRIPTION: In vitro assay LXRβ: PathHunter NHR CHO cells, LXRβ / Steroid Receptor Co-activator Peptide enzyme fragment complementation
# Format: cell-based
# CONDITION: PathHunter NHR CHO cells, full-length human LXRβ and SRCP, chemiluminescent signal; read-out: LXRβ PPI
# Source text: PathHunter NHR CHO cells stably transfected with tagged full-length human LXRβ and a nuclear fusion protein containing Steroid Receptor Co-activator Peptide (SRCP). […] Microplates were read following signal generation with a PerkinElmer Envision instrument for chemiluminescent signal detection.
Each item that follows carries a reported EC50.

Please review the entries below; each comes with its answer.
COCCNC(=O)OC[C@@H](C)[C@H]1CC[C@H]2[C@@H]3CC=C4C[C@@H](O)CC[C@]4(C)[C@H]3CC[C@]12C; > 10 µM
CON(CC(=O)OC(C)(C)C)C(=O)CC[C@@H](C)[C@H]1CC[C@H]2[C@@H]3CC=C4C[C@@H](O)CC[C@]4(C)[C@H]3CC[C@]12C; 0.25 to 1 µM
C[C@H](Oc1cccnc1)[C@H]1CC[C@H]2[C@@H]3CC=C4C[C@@H](O)CC[C@]4(C)[C@H]3CC[C@]12C; > 10 µM

Noted for "COc1cccc(N2CCN(C(=O)CC[C@@H](C)[C@H]3CC[C@H]4[C@@H]5CC=C6C[C@@H](O)CC[C@]6(C)[C@H]5CC[C@]34C)CC2)n1" : its EC50 reads > 10 µM

Notebook: COC(C)C1CCN(C(=O)CC[C@@H](C)[C@H]2CC[C@H]3[C@@H]4CC=C5C[C@@H](O)CC[C@]5(C)[C@H]4CC[C@]23C)CC1 (stereo partly drawn) , EC50 read as 0.25 to 1 µM

Item: "C[C@H](COc1cccnc1)[C@H]1CC[C@H]2[C@@H]3CC=C4C[C@@H](O)CC[C@]4(C)[C@H]3CC[C@]12C" | EC50: > 10 µM

Value of EC50 reported for the compound "C=CCN1C[C@H]2CON(C(=O)CC[C@@H](C)[C@H]3CC[C@H]4[C@@H]5CC=C6C[C@@H](O)CC[C@]6(C)[C@H]5CC[C@]34C)[C@H]2C1" is > 10 µM

What the record says about "C[C@H](CCC(=O)N(C)OC1CCCC1)[C@H]1CC[C@H]2[C@@H]3CC=C4C[C@@H](O)CC[C@]4(C)[C@H]3CC[C@]12C" : EC50 is 1 to 10 µM

Recorded result, "C[C@H](CCC(=O)N1CC2(C1)CC(C)(CO)C2)[C@H]1CC[C@H]2[C@@H]3CC=C4C[C@@H](O)CC[C@]4(C)[C@H]3CC[C@]12C" , EC50: > 10 µM

###

# STUDY_TARGET: SREBP-2 (Homo sapiens (Human), UniProt Q12772)
# TEST_DESCRIPTION: In vitro assay SREBP-2: PathHunter U2OS SREBP-2 Nuclear Translocation Cell Line, U18666A-stimulated
# Assay type: cell-based
# CONDITION: PathHunter U2OS SREBP-2 nuclear translocation cells, U18666A 10 μM, overnight (16 hours)
Listing of recorded IC50 by entry.

As a guide, the following entries are already answered.
COc1cccc(CC[C@@H](C)[C@H]2CC[C@H]3[C@@H]4CC=C5C[C@@H](O)CC[C@]5(C)[C@H]4CC[C@]23C)n1; 250 to 1000 nM
C[C@H](CCC(=O)N1CCN(C(=O)C2CCCC2)CC1)[C@H]1CC[C@H]2[C@@H]3CC=C4C[C@@H](O)CC[C@]4(C)[C@H]3CC[C@]12C; < 250 nM
C[C@H](CCC(=O)N1CCN(C(=O)c2nnnn2C)CC1)[C@H]1CC[C@H]2[C@@H]3CC=C4C[C@@H](O)CC[C@]4(C)[C@H]3CC[C@]12C; < 250 nM
CNC(=O)C1(C)CCN(C(=O)CC[C@@H](C)[C@H]2CC[C@H]3[C@@H]4CC=C5C[C@@H](O)CC[C@]5(C)[C@H]4CC[C@]23C)CC1; 250 to 1000 nM
CNC(=O)c1cncc(O[C@@H](C)[C@H]2CC[C@H]3[C@@H]4CC=C5C[C@@H](O)CC[C@]5(C)[C@H]4CC[C@]23C)c1; 250 to 1000 nM
C[C@H](OC(=O)N(C)C)[C@H]1CC[C@H]2[C@@H]3CC=C4C[C@@H](O)CC[C@]4(C)[C@H]3CC[C@]12C [Example 461]; 250 to 1000 nM

Entry under test: "CCn1c(CC[C@@H](C)[C@H]2CC[C@H]3[C@@H]4CC=C5C[C@@H](O)CC[C@]5(C)[C@H]4CC[C@]23C)n[nH]c1=S" . Its IC50 was < 250 nM

Noted for "CON(CCO)C(=O)CC[C@@H](C)[C@H]1CC[C@H]2[C@@H]3CC=C4C[C@@H](O)CC[C@]4(C)[C@H]3CC[C@]12C" : its IC50 reads 250 to 1000 nM

Kindly note the recorded IC50 for "CC(=O)N(C)[C@H]1CCN(C(=O)CC[C@@H](C)[C@H]2CC[C@H]3[C@@H]4CC=C5C[C@@H](O)CC[C@]5(C)[C@H]4CC[C@]23C)C1" , which is < 250 nM

Recorded IC50 (compound C[C@H](Oc1cccnc1CO)[C@H]1CC[C@H]2[C@@H]3CC=C4C[C@@H](O)CC[C@]4(C)[C@H]3CC[C@]12C [Example 434] ): 250 to 1000 nM

// IC50 value for "COC(=O)N1CCN(C(=O)C[C@@H](C)[C@H]2CC[C@H]3[C@@H]4CC=C5C[C@@H](O)CC[C@]5(C)[C@H]4CC[C@]23C)CC1" : 1000 to 10000 nM

"CCN(CC(=O)O)C(=O)CC[C@@H](C)[C@H]1CC[C@H]2[C@@H]3CC=C4C[C@@H](O)CC[C@]4(C)[C@H]3CC[C@]12C" has a reported IC50 of > 10000 nM
